Target: PTP1BΔ7 (residues 1-284) (Homo sapiens)
Sequence (P18031 1-284): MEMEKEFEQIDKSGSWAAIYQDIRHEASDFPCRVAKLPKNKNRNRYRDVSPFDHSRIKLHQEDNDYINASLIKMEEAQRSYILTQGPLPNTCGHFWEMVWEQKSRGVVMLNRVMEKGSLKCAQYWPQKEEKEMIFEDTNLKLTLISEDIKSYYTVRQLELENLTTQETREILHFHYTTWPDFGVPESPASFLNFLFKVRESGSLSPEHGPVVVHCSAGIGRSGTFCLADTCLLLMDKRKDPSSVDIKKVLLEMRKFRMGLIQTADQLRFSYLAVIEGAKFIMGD
endpoint-label: Kd (µM)
The response must be a number in µM with no trailing unit.

# query: Kd | item O=C(O)C(=O)Nc1sc2c(c1C(=O)O)CCNC2 | system: PTP1BΔ7 (residues 1-284) (Homo sapiens) 33

----------
Biological target: PTP1BYAYA (Y152AY153A) (Homo sapiens, UniProt P18031, Y152A/Y153A)
Test: Fluorescence affinity measurement, PTP1BYAYA
Conditions: binding to PTP1BYAYA
endpoint-label: Kd

# query: Kd | item O=C(O)C(=O)Nc1sc2c(c1C(=O)O)CCNC2 [TCS401] | system: PTP1BYAYA (Y152AY153A) (Homo sapiens, UniProt P18031, Y152A/Y153A) 26 µM

----------
Target: PTP1BP185G (Homo sapiens, UniProt P18031, P185G)
Sequence (P18031 1-301 P185G): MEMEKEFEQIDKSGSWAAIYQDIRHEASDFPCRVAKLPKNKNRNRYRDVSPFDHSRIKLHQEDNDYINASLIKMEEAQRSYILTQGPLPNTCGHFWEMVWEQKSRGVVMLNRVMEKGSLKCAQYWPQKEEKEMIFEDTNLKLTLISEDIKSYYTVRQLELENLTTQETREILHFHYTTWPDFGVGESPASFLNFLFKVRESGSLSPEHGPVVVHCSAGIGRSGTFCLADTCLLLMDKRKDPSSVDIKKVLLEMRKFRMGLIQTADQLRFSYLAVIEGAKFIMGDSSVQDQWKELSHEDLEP
Experiment: Fluorescence affinity measurement, PTP1BP185G
Settings: binding to PTP1BP185G (catalytically dead variant)
endpoint-label: pKd
Interpret pKd as the negative base-10 log of the concentration measured in mol/L.

# pKd lookup, item O=C(O)C(=O)Nc1sc2c(c1C(=O)O)CCNC2 [TCS401] 4.70

----------
Molecular target: PTP1BT178A (Homo sapiens, UniProt P18031, T178A)
Sequence (P18031 1-301 T178A): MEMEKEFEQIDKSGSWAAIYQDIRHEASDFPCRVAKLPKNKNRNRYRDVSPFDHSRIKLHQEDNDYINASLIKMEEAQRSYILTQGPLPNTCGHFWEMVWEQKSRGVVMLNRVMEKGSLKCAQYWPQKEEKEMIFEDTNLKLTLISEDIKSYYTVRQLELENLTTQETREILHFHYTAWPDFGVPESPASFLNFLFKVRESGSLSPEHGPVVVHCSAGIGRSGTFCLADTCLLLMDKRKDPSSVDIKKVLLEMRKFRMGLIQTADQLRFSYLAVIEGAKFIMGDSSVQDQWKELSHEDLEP
Assay: Fluorescence affinity measurement, PTP1BT178A
Conditions: binding to PTP1BT178A
endpoint-label: pKd
Interpret pKd as the negative base-10 log of the concentration measured in mol/L.

# pKd lookup, item O=C(O)C(=O)Nc1sc2c(c1C(=O)O)CCNC2 [TCS401] 4.35

Values compiled from paper PMC5325675.
